Molecular target: Nav1.7 (or SCN9A) channel; HEK cells stably transfected with hSCN9A (Homo sapiens, UniProt Q15858)
Construct: expressed in transfected cells
Sequence (Q15858 whole entry): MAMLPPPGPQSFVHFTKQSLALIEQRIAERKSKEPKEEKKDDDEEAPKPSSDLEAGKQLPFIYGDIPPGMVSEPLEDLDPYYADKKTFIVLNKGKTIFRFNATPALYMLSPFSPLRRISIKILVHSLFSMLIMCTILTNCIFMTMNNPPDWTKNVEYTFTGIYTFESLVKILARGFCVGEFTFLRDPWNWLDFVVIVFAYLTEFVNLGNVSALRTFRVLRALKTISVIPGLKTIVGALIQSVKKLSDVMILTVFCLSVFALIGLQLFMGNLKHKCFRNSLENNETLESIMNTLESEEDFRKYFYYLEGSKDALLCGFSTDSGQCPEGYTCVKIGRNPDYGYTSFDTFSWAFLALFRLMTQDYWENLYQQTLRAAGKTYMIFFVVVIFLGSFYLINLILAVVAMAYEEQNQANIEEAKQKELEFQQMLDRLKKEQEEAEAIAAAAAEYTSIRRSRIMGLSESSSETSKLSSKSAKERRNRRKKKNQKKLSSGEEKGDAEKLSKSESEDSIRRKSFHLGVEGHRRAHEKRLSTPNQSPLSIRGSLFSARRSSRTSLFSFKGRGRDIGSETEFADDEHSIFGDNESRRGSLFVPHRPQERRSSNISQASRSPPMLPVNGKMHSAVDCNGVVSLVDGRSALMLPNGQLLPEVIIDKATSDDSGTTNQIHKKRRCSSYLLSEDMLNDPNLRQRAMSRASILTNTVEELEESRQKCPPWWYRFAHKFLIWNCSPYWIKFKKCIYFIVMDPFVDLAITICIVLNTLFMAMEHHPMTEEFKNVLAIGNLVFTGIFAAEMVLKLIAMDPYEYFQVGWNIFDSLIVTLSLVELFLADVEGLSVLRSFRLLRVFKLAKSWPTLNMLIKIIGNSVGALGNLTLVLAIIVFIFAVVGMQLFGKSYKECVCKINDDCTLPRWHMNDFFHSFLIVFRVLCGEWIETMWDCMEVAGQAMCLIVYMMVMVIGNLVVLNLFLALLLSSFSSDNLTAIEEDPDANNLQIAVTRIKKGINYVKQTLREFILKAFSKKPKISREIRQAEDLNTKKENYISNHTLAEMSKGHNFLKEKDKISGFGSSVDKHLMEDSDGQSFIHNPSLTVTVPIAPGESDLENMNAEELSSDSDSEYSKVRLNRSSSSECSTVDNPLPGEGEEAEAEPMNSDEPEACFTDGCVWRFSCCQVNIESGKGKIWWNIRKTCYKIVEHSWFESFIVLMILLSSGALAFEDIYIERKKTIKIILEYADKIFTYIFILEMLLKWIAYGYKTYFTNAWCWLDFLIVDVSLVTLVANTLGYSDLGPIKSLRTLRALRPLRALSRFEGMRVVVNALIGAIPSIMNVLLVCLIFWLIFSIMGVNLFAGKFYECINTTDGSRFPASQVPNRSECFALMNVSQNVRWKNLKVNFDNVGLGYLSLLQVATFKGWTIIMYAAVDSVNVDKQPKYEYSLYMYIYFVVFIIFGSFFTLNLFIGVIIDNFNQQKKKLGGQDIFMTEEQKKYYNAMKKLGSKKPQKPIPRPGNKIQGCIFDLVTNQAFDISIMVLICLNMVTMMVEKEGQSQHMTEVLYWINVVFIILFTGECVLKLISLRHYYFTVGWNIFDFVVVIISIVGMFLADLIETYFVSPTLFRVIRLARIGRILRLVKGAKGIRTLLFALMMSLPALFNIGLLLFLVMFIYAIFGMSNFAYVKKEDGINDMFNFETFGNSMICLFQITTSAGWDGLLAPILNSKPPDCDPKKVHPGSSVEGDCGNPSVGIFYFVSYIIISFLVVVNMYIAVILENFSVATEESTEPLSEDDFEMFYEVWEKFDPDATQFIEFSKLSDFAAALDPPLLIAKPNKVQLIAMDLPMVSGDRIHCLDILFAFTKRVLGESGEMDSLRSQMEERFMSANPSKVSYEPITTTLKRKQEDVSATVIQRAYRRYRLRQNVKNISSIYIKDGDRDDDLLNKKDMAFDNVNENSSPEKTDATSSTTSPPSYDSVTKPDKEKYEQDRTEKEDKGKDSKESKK
Assay: Nav1.7 block, PatchXpress 7000 automated whole-cell voltage clamp, estimated IC50 (EIC50)
Format: cell-based
Conditions: estimated IC50; hSCN9A HEK cells, PatchXpress platform; Examples 283-814
attributeMeasured: IC50 (µM)

1) Cc1nn(C)c(C)c1Cc1ccc(Oc2ccc(S(=O)(=O)Nc3ccc(F)cn3)cc2C#N)cc1    54
2) O=S(=O)(Nc1cscn1)c1ccc(Oc2ccc(Cl)cc2-c2cn[nH]c2)cc1F    1
3) N#Cc1cc(S(=O)(=O)Nc2nccs2)ccc1Oc1ccc(Oc2ccccc2)nc1    2.6
4) Nc1cc(-c2cc(OC(F)(F)F)ccc2Oc2cc(F)c(S(=O)(=O)Nc3ncns3)cc2Cl)ccn1    0.0017

A. N#Cc1cc(S(=O)(=O)Nc2nccs2)ccc1Oc1cccc(-c2cccc(C(F)(F)F)n2)c1
B. N#Cc1cc(S(=O)(=O)Nc2nccs2)ccc1Oc1ccc(Cl)cc1-c1ccn[nH]1
C. Cc1nsc(NS(=O)(=O)c2cc(Cl)c(Oc3ccc(Cl)cc3-c3ccnn3C)cc2F)n1
Task: Ranking field: IC50; order: falling. Please list the labels according to the requested order.
Output: A, C, B
(A: 2 µM, C: 0.034 µM, B: 0.014 µM)
